All values here come from patent US20200253978A1.

Listing: IC50 of selected compounds
# assay-system: BaF3 cells expressing Tel-FGFR-4 and luciferase (Homo sapiens, UniProt P22455)
# Construct: Luciferase is co-expressed as a viability reporter and is not part of the key; P41212 (Transcription factor ETV6)
# Sequence (P22455 467-755 limits assumed): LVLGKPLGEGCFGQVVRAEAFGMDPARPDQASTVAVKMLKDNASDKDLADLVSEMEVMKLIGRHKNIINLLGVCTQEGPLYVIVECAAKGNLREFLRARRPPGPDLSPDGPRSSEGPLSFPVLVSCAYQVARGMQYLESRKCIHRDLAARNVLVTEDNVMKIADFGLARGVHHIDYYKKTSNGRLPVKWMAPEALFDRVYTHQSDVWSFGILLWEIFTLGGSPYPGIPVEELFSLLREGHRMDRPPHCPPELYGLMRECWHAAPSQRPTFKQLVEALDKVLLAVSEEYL
# assay-protocol: BaF3 cellular growth inhibition assay, Tel-FGFR-4 and luciferase (Bright-Glo)
# protocol-conditions: BaF3 Tel-FGFR-4 cells, 2 days incubation, 50% growth inhibition vs DMSO

For orientation, consider the following solved cases.
[[record]]
compound = "C=CC(=O)Nc1cc(N2CCN(CC)CC2)ccc1Nc1cc2cc(C(O)c3c(F)c(OC)cc(OC)c3F)oc2cn1 (single isomer, unassigned) [Example 13A]"
assay_system = "BaF3 cells expressing Tel-FGFR-4 and luciferase (Homo sapiens, UniProt P22455)"
result = "< 100 nM"

[[record]]
compound = "C=CC(=O)Nc1cccc(C)c1Nc1cc2cc(C(=O)c3c(F)c(OC)cc(OC)c3F)sc2cn1"
assay_system = "BaF3 cells expressing Tel-FGFR-4 and luciferase (Homo sapiens, UniProt P22455)"
result = "< 100 nM"

[[record]]
compound = "C=CC(=O)N[C@H]1CCOC[C@H]1Nc1cc2cc(C(O)c3c(F)c(OC)cc(OC)c3F)oc2cn1 (mixture of isomers)"
assay_system = "BaF3 cells expressing Tel-FGFR-4 and luciferase (Homo sapiens, UniProt P22455)"
result = "100 to 1000 nM"

[[record]]
compound = "C=CC(=O)Nc1cn(C)nc1Nc1cc2cc(C(O)c3c(F)c(OC)cc(OC)c3F)oc2cn1 (racemic)"
assay_system = "BaF3 cells expressing Tel-FGFR-4 and luciferase (Homo sapiens, UniProt P22455)"
result = "100 to 1000 nM"

[[record]]
compound = "C=CC(=O)Nc1cc(N2CCN(CC)CC2)ccc1Nc1cc2cc(C(=O)c3c(F)c(OC)cc(OC)c3F)oc2cn1"
assay_system = "BaF3 cells expressing Tel-FGFR-4 and luciferase (Homo sapiens, UniProt P22455)"
result = "< 100 nM"

[[record]]
compound = "C=CC(=O)Nc1cc(N2CCN(CC)CC2)ccc1Nc1cc2c(C(=O)c3c(F)c(OC)cc(OC)c3F)c[nH]c2cn1"
assay_system = "BaF3 cells expressing Tel-FGFR-4 and luciferase (Homo sapiens, UniProt P22455)"
result = "100 to 1000 nM"

[[record]]
compound = "C=CC(=O)Nc1cc(N2CCN(CC)CC2)ccc1Nc1cc2cc(C(=O)c3cc(OC)cc(OC)c3)oc2cn1"
assay_system = "BaF3 cells expressing Tel-FGFR-4 and luciferase (Homo sapiens, UniProt P22455)"
result = "100 to 1000 nM"

[[record]]
compound = "C=CC(=O)Nc1cccc(C(F)(F)F)c1Nc1cc2cc(C(=O)c3c(F)c(OC)cc(OC)c3F)oc2cn1"
assay_system = "BaF3 cells expressing Tel-FGFR-4 and luciferase (Homo sapiens, UniProt P22455)"
result = "100 to 1000 nM"


Recorded IC50 (compound "C=CC(=O)N[C@H]1CCOC[C@H]1Nc1ncc2oc(C(=O)c3c(F)c(OC)cc(OC)c3F)cc2n1" ): < 100 nM

Recorded IC50 (compound "C=CC(=O)Nc1cc(N2CCN(CC)CC2)ccc1Nc1cc2cc(C(=O)c3c(F)c(OC)cc(OC)c3F)sc2cn1" ): < 100 nM

Recorded IC50 (compound "C=CC(=O)Nc1cc(N2CCN(CC)CC2)ccc1Nc1ccc2c(ccn2Cc2c(F)c(OC)cc(OC)c2F)n1" ): 100 to 1000 nM

Recorded IC50 (compound "C=CC(=O)N[C@H]1CCOC[C@H]1Nc1cc2cc(-c3c(Cl)c(OC)cc(OC)c3Cl)oc2cn1" ): 100 to 1000 nM

Recorded IC50 (compound "C=CC(=O)Nc1cccc(C)c1Nc1ncc2oc(C(=O)c3c(F)c(OC)cc(OC)c3F)cc2n1" ): < 100 nM

Recorded IC50 (compound "C=CC(=O)Nc1cc(N2CCN(CC)CC2)ccc1Nc1cc2cc(C(=O)c3c(F)c(OC)cc(OC)c3F)[nH]c2cn1" ): 100 to 1000 nM

Recorded IC50 (compound "C=CC(=O)Nc1cc(N2CCN(CC)CC2)ccc1Nc1ncc2oc(C(=O)c3c(F)c(OC)cc(OC)c3F)cc2n1" ): < 100 nM

Recorded IC50 (compound "CCN1CCN(c2ccc(Nc3cc4cc(C(=O)c5c(F)c(OC)cc(OC)c5F)oc4cn3)c(NC(=O)/C=C\Cl)c2)CC1" ): < 100 nM

Recorded IC50 (compound "C=CC(=O)Nc1cc(N2CCN(CC)CC2)ccc1Nc1cc2cc(C(=O)c3c(F)c(OC)cc(OC)c3F)n(C)c2cn1" ): 100 to 1000 nM

Recorded IC50 (compound "C=CC(=O)Nc1cccc(C)c1Nc1cc2cc(C(=O)c3c(F)c(OC)cc(OC)c3F)oc2cn1" ): < 100 nM

Recorded IC50 (compound "C=CC(=O)Nc1cc(N2CCN(CC)CC2)ccc1Nc1cc2c(O)c(C(=O)c3c(F)c(OC)cc(OC)c3F)oc2cn1" ): 1000 to 10000 nM

Recorded IC50 (compound "C=CC(=O)Nc1cccc(Cl)c1Nc1cc2cc(C(=O)c3c(F)c(OC)cc(OC)c3F)oc2cn1" ): < 100 nM

Recorded IC50 (compound "C=CC(=O)Nc1cc(N2CCN(CC)CC2)ccc1Nc1cc2cc(C(=O)Nc3c(F)c(OC)cc(OC)c3F)oc2cn1" ): 100 to 1000 nM

---

# assay-system: BaF3 cells expressing Tel-FGFR-1 and luciferase (Homo sapiens)
# Construct: Luciferase is co-expressed as a viability reporter and is not part of the key; P41212 (Transcription factor ETV6)
# Sequence (P11362 478-767 limits assumed): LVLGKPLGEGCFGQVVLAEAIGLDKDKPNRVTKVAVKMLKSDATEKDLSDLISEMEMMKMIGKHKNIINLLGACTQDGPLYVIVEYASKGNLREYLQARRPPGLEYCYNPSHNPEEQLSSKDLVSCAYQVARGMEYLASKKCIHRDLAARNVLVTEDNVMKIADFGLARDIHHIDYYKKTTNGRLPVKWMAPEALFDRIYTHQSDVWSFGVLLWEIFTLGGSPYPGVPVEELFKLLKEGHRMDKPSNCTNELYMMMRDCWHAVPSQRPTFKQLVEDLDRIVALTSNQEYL
# assay-protocol: BaF3 cellular growth inhibition assay, Tel-FGFR-1 and luciferase (Bright-Glo)
# Assay type: cell-based
# protocol-conditions: BaF3 Tel-FGFR-1 cells, 2 days incubation, 50% growth inhibition vs DMSO; numeric bounds
reported-endpoint: IC50

For orientation, consider the following solved cases.
[[record]]
compound = "C=CC(=O)Nc1cc(N2CCN(CC)CC2)ccc1Nc1cc2cc(C(=O)c3c(F)c(OC)cc(OC)c3F)oc2cn1"
reported_endpoint = "IC50"
result = "> 10 µM"

[[record]]
compound = "C=CC(=O)Nc1cccc(C)c1Nc1cc2cc(C(O)c3c(F)c(OC)cc(OC)c3F)sc2cn1 (racemic)"
reported_endpoint = "IC50"
result = "> 10 µM"

[[record]]
compound = "C=CC(=O)N[C@H]1CCOC[C@H]1Nc1ncc2oc(C(O)c3c(F)c(OC)cc(OC)c3F)cc2n1 (stereo partly shown)"
reported_endpoint = "IC50"
result = "> 10 µM"


Proceed to the following item.
Recorded IC50 (compound C=CC(=O)Nc1cn(C)nc1Nc1cc2cc(C(O)c3c(F)c(OC)cc(OC)c3F)oc2cn1 (racemic) ): > 3.3 µM

---

# assay-system: BaF3 cells expressing Tel-FGFR-1 and luciferase (Homo sapiens)
# Construct: Luciferase is co-expressed as a viability reporter and is not part of the key; P41212 (Transcription factor ETV6)
# assay-protocol: BaF3 cellular growth inhibition assay, Tel-FGFR-1 and luciferase (Bright-Glo)
# Format: cell-based
# protocol-conditions: BaF3 Tel-FGFR-1 cells, 2 days incubation, 50% growth inhibition vs DMSO; numeric bounds
reported-endpoint: IC50

Recorded IC50 (compound "CCN1CCN(c2ccc(Nc3cc4cc(C(=O)c5c(F)c(OC)cc(OC)c5F)oc4cn3)c(NC(=O)/C=C\Cl)c2)CC1" ): > 3.3 µM

Recorded IC50 (compound "C=CC(=O)Nc1cccc(C)c1Nc1cc2cc(C(=O)c3c(F)c(OC)cc(OC)c3F)oc2cn1" ): > 10 µM

Recorded IC50 (compound "C=CC(=O)N[C@H]1CCOC[C@H]1Nc1ncc2oc(C(=O)c3c(F)c(OC)cc(OC)c3F)cc2n1" ): > 10 µM

Recorded IC50 (compound C=CC(=O)N[C@H]1CCOC[C@H]1Nc1cc2cc(C(O)c3c(F)c(OC)cc(OC)c3F)oc2cn1 (mixture of isomers) ): > 10 µM

Recorded IC50 (compound C=CC(=O)Nc1cc(N2CCN(CC)CC2)ccc1Nc1cc2cc(C(C)(O)c3c(F)c(OC)cc(OC)c3F)oc2cn1 (racemic) ): > 10 µM

---

Listing: IC50 of selected compounds
# assay-system: BaF3 cells expressing Tel-FGFR-1 and luciferase (Homo sapiens)
# Construct: Luciferase is co-expressed as a viability reporter and is not part of the key; P41212 (Transcription factor ETV6)
# assay-protocol: BaF3 cellular growth inhibition assay, Tel-FGFR-1 and luciferase (Bright-Glo)
# Type: cell-based
# protocol-conditions: BaF3 Tel-FGFR-1 cells, 2 days incubation, 50% growth inhibition vs DMSO; numeric bounds

For orientation, consider the following solved cases.
[[record]]
compound = "C=CC(=O)Nc1cc(N2CCN(CC)CC2)ccc1Nc1cc2cc(C(O)c3c(F)c(OC)cc(OC)c3F)oc2cn1 (racemic) [Example 5]"
result = "> 10 µM"

[[record]]
compound = "C=CC(=O)Nc1cc(N2CCN(CC)CC2)ccc1Nc1cc2cc(C(O)c3c(F)c(OC)cc(OC)c3F)oc2cn1 (single isomer, unassigned) [Example 13A]"
result = "> 10 µM"

[[record]]
compound = "C=CC(=O)Nc1cc(N2CCN(CC)CC2)ccc1Nc1cc2cc(C(O)c3c(F)c(OC)cc(OC)c3F)oc2cn1 (single isomer, unassigned) [Example 13B]"
result = "> 10 µM"


Recorded IC50 (compound "C=CC(=O)Nc1cc(N2CCN(CC)CC2)ccc1Nc1ccc2c(ccn2Cc2c(F)c(OC)cc(OC)c2F)n1" ): > 3.3 µM

Recorded IC50 (compound "C=CC(=O)Nc1cc(N2CCN(CC)CC2)ccc1Nc1cc2cc(C(F)(F)c3c(F)c(OC)cc(OC)c3F)oc2cn1" ): > 10 µM

Recorded IC50 (compound "C=CC(=O)Nc1cccc(C(F)(F)F)c1Nc1cc2cc(C(=O)c3c(F)c(OC)cc(OC)c3F)oc2cn1" ): > 3.3 µM

Recorded IC50 (compound "C=CC(=O)Nc1cc(N2CCN(CC)CC2)ccc1Nc1cc2c(O)c(C(=O)c3c(F)c(OC)cc(OC)c3F)oc2cn1" ): > 10 µM
